- Test target: T1, human interleukin-23 receptor (IL23R) (human, UniProt Q5VWK5 24-355, limits assumed)
- T1 construct: also called human IL23R
- T1 sequence (looked up): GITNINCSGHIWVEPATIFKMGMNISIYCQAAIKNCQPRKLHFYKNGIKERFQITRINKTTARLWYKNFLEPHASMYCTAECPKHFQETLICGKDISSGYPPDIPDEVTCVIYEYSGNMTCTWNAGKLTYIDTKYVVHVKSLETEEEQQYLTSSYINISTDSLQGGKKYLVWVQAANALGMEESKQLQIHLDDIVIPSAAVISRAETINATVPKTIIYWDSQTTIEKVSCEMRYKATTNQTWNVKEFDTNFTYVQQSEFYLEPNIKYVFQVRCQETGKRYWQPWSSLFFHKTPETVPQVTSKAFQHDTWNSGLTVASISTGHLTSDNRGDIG
- Measurement description: SPR, scFv
Property name: koff (s⁻¹)
Enter your answer as a number in s⁻¹; do not include the unit.

Recall and state the measured koff for Vκ1/VH2 consensus (uncapped), human IL23R specific scFv (scFv, scFv VL-linker-VH, made in E. coli; Vκ framework IV (uncapped, full consensus); also called Vκ1VH2 uncapped) scFv: DIQMTQSPSSLSASVGDRVTITCQASENIYSFLAWYQQKPGKAPKLLIYSASKLAAGVPSRFSGSGSGTDFTLTISSLQPEDFATYYCQQTNRYSNPDIYNVFGQGTKVEIKRGGGGSGGGGSGGGGSGGGGSQVQLKESGPALVKPTQTLTLTCTFSGIDFNSNYYMCWIRQPPGKALEWLACIYVGSHVNTYYANWAKGRLTISKDTSKNQVVLTMTNMDPVDTATYYCATSGSSVLYFKFWGQGTLVTVSS .
0.000333

Recall and state the measured koff for Vκ1/VH6 consensus (uncapped), human IL23R specific scFv (scFv, scFv VL-linker-VH, made in E. coli; Vκ framework IV (uncapped, full consensus); also called Vκ1VH6 uncapped) scFv: DIQMTQSPSSLSASVGDRVTITCQASENIYSFLAWYQQKPGKAPKLLIYSASKLAAGVPSRFSGSGSGTDFTLTISSLQPEDFATYYCQQTNRYSNPDIYNVFGQGTKVEIKRGGGGSGGGGSGGGGSGGGGSQVQLQQSGPGLVKPSQTLSLTCAISGIDFNSNYYMCWIRQSPGRGLEWLGCIYVGSHVNTYYANWAKGRITINPDTSKNQFSLQLNSVTPEDTAVYYCATSGSSVLYFKFWGQGTLVTVSS .
0.000309
